Source: ChEMBL document CHEMBL1153893

# Tested on: Cynomolgus monkey
# test.details: AUC (0 to infinity) in cynomolgus monkey at 1 mg/kg, po
# Format: ADME, organism-based, Macaca fascicularis, Plasma
# Set-up: time infinity, dose 1 mg/kg, route oral
# conditions: in vivo
Assignment: determine reported log10 AUC for the given compounds.
Log scale reminder: AUC in ng·h/mL, then log10 taken.

In the examples that follow, each entry is paired with its recorded log10 AUC.
CC(C)(C)CCN1C(=O)C(C2=NS(=O)(=O)c3cc(NS(C)(=O)=O)ccc3N2)=C(O)C2CCCN21 (configuration not stated) ... 2.54
CC(C)(C)CCN1C(=O)C(C2=NS(=O)(=O)c3cc(NS(C)(=O)=O)ccc3N2)=C(O)C2CCCCC21 (racemic) ... 2.38
CS(=O)(=O)Nc1ccc2c(c1)S(=O)(=O)N=C(C1=C(O)[C@H]3CCC[C@H]3N(Cc3ccc(F)cc3)C1=O)N2 ... 3.78

Quick batch: log10 AUC for everything below.
1. CS(=O)(=O)Nc1ccc2c(c1)S(=O)(=O)NC(C1=C(O)[C@@H]3CCC[C@@H]3N(Cc3ccc(F)cc3)C1=O)=N2
2. CS(=O)(=O)Nc1ccc2c(c1)S(=O)(=O)N=C(c1c(O)c3cccn3n(Cc3ccc(F)cc3)c1=O)N2
3. CC(C)CCN1C(=O)C(C2=NS(=O)(=O)c3cc(NS(C)(=O)=O)ccc3N2)=C(O)C2CCCC21 (racemic)
4. CS(=O)(=O)Nc1ccc2c(c1)S(=O)(=O)N=C(C1=C(O)[C@H]3CCC[C@H]3N(Cc3ccc(F)c(F)c3)C1=O)N2

-- reply
[2.76, 0.78, 2.44, 3.26]
